B1: CPEB3 Ribozyme (parent)
chain: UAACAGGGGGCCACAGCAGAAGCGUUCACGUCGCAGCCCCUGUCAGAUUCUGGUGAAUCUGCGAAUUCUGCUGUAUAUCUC

Variants of: B1
Test: self-cleavage, relative activity (ratio to wild type); higher = more cleavage; in vitro, sequencing
property_name: self-cleavage

ordered_residues	property_name	value_observed
UAACAGGGGGCCACAGCAGAAGCGUUCACGUCGCAGCCCCUGUCAGAUUCUGGUGGAUCUGCGAAUUCUGCUGUAAAUCUC [A56G U76A]	self-cleavage	1.07
UAACAAGGGGCCACAGCAGAAGCGUUCACGUCGCAGCCCCUGUCAGAUUCUGGUGAAUCUGCGAUUUCUGCUGUAUAUCUC [G6A A65U]	self-cleavage	0.22
UAACAGGGGGCCACAGCAGAAGCGUUCACGGCGCAGCCCCUGUCAGAUUCUGGUGAAUCCGCGAAUUCUGCUGUAUAUCUC [U31G U60C]	self-cleavage	0.31
UAACAGGGGGCCACAGCAGGAGCGUUCACGUCGCAGCCCCUGUCAGAUUCUGGUGAAUCUGGGAAUUCUGCUGUAUAUCUC [A20G C62G]	self-cleavage	0.17
UAACAGGGGGCCACAGCAGAUGCGUUCACGUCGCUGCCCCUGUCAGAUUCUGGUGAAUCUGCGAAUUCUGCUGUAUAUCUC [A21U A35U]	self-cleavage	0.28
UAACCGGGGGCCACAGCAGAAGCGUUCACGUCGCAGCCCCUGGCAGAUUCUGGUGAAUCUGCGAAUUCUGCUGUAUAUCUC [A5C U43G]	self-cleavage	0.38
UAACAGGGGGCCACAGCAGAAGUGUUCACGUCGCAGCCCCUGUCAGAUUCUGGUGAAUCUCCGAAUUCUGCUGUAUAUCUC [C23U G61C]	self-cleavage	0.11
UAACAGGGGGCCACAGCAGAAGCGCUCACGUCGCAGCCCCUGUCAGAUUCUGGUGAAUCUGCGAAUUCUGCUGUAUAUGUC [U25C C79G]	self-cleavage	0.26
UAACAGGGGGCCACAGCAGAAGCGUUCACGUCGCAGCCCCAGUCAAAUUCUGGUGAAUCUGCGAAUUCUGCUGUAUAUCUC [U41A G46A]	self-cleavage	0.3
UAACAGGGGGCCACAGAAGAAGCGUUCACGUCGCAGCCCCUGUCAGAUUCUGGUGAAUCUGCGAAUUCUGCUGUAUACCUC [C17A U78C]	self-cleavage	0.21
UAACAGGGGGCCACAGCAGAAGCGUUCACGUCGCAGCCCCUAUCAGAUUCUGGUGAAUCUGCGAAUUCAGCUGUAUAUCUC [G42A U69A]	self-cleavage	0.08

Recorded values, source the RNAGym collection of RNA variant scans (doi:10.1093/nar/gkz1192).
